Some binders, each annotated with its measured koff.
- study target: T1, human complement protein C5 (human, UniProt P01031 19-1676)
- T1 construct: Native C5 is a two-chain protein made from one precursor; also called hC5; human C5
- experimental protocol: SPR (Biacore), pH 7.4
Output spec: scalar in s⁻¹, unitless text.

Sample answers from the record:
binder	result number
CRL0499 (bispecific antibody, anti-albumin VHH / (G4S)3 / anti-C5 VHH fusion, purified by Protein A; also called CRL0499 (HSA/C5)) EVQLLESGGGLVQPGGSLRLSCAASGFTFRSFGMSWVRQAPGKGPEWVSSISGSGSDTLYADSVKGRFTISRDNSKNTLYLQMNSLRPEDTAVYYCTIGGSLSRSSQGTLVTVSSGGGGSGGGGSGGGGSEVQLVESGGGLVQPGGSLRLSCAASGRAHSDYAMAWFRQAPGQEREFVAGIGWSGGDTLYADSVRGRFTNSRDNSKNTLYLQMNSLRAEDTAVYYCAARQGQYIYSSMRSDSYDYWGQGTLVTVSS	0.000332
CRL0483 (bispecific antibody, anti-C5 VHH / (G4S)3 / anti-albumin VHH fusion, purified by Protein A; also called CRL0483 (C5/HSA)) EVQLVESGGGLVQPGGSLRLSCAASGRTFSGILSPYAVGWFRQAPGKGLEFVSTITSGGSAIYTDSVKGRFTISRDNAKDSLYLQMNSLRAEDTAVYYCAVRTRRYGSNLGEVPQENEYGYWGQGTLVTVSSGGGGSGGGGSGGGGSEVQLLESGGGLVQPGGSLRLSCAASGFTFRSFGMSWVRQAPGKGPEWVSSISGSGSDTLYADSVKGRFTISRDNSKNTLYLQMNSLRPEDTAVYYCTIGGSLSRSSQGTLVTVSS	0.000242
CRL0500 (bispecific antibody, anti-albumin VHH / (G4S)3 / anti-C5 VHH fusion, purified by Protein A; also called CRL0500 (HSA/C5)) EVQLVESGGGLVKPGGSLRLSCAASGRPVSNYAAAWFRQAPGKEREFVSAINWQKTATYADSVKGRFTISRDNAKNSLYLQMNSLRAEDTAVYYCAAVFRVVAPKTQYDYDYWGQGTLVTVSSGGGGSGGGGSGGGGSEVQLVESGGGLVQPGGSLRLSCAASGRAHSDYAMAWFRQAPGQEREFVAGIGWSGGDTLYADSVRGRFTNSRDNSKNTLYLQMNSLRAEDTAVYYCAARQGQYIYSSMRSDSYDYWGQGTLVTVSS	0.000672

Read the next record carefully.
### Prompt Which koff value belongs to CRL0484 (bispecific antibody, anti-C5 VHH / (G4S)3 / anti-albumin VHH fusion, purified by Protein A; also called CRL0484 (C5/HSA)) EVQLVESGGGLVQPGGSLRLSCAASGRTFSGILSPYAVGWFRQAPGKGLEFVSTITSGGSAIYTDSVKGRFTISRDNAKDSLYLQMNSLRAEDTAVYYCAVRTRRYGSNLGEVPQENEYGYWGQGTLVTVSSGGGGSGGGGSGGGGSEVQLVESGGGLVKPGGSLRLSCAASGRPVSNYAAAWFRQAPGKEREFVSAINWQKTATYADSVKGRFTISRDNAKNSLYLQMNSLRAEDTAVYYCAAVFRVVAPKTQYDYDYWGQGTLVTVSS ?
### Response 7.69e-05
